- target_under_test: T1, SARS-COV-2 RBD (SARS-COV-2, UniProt P0DTC2 319-539)
- T1 construct: also called WT RBD
- test: ELISA, RBD coated on plate
// reported EC50 for each item listed
The reply should consist of the numeric value with the unit placed after it.

# count of solved cases: 2
C1045 (antibody, V domains shown) VH: QVQLQESGPGLVKPSQTLSLTCTVSGDSISSGNYYWSWIRQPAGKGLEWIGHIYTSGSPNYKPSLKSRVTISLDTSKNQFSLKLTSVTAADTAMYYCARDIPSTWYFDLWGRGTLVTVSS VL: SYELTQPPSVSVAPGKTARIPCGGTDIGSKNVHWYQQKPGQAPVLAVYDDSDRPSGIPERFSGSNSGSTATLTISRVEAGDEADYYCQVWDSSGDRLSWVFGGGTKLTVL    2.57 ng/mL
C1003 (antibody, V domains shown) VH: QVQLVESGGGVVQPGRSLRLSCAASGFAFSSYGMNWVRQAPGKGLEWVTTVSSDGNVNYYIDSVKGRFTISRDNSKNTLYLQMNSLRGDDTAVYYCAKGPRFGWSYRGGSGFDIWGQGTMVTVSS VL: DIQMTQSPSSLSASVGDRVTITCQASQDISNYLNWYQQKPGKAPKLLIYDASNLETGVPSRFSGSGSGTDFTFTITSLQPEDIATYYCQQYDNLPITFGQGTRLEIK    1.82 ng/mL

Then there is this binder:
So what's the measured EC50 for this one? C1067 (antibody, V domains shown) VH: QVQLVQSGAEVKKPGASVKVSCKASRDTFTTHYIHWVRQAPGQGLEWMGIINPSGGSISYAQKFQGRVTMTRDTSTSTVYMELSSLRSEDTAVYYCARGGIVPHLSNWFDPWGQGTLVTVSS VL: EIVLTQSPGTLSLSPGERATLSCRASQSVSSSYLAWYQQKPGQAPRLLIYGASSRATGIPDRFTGSGSGTDFTLTISRLEPEDFAVYYCQQYGRSSGFTFGPGTKVDIK
2.93 ng/mL
